Values were extracted from patent US12139481B2.

For each record, write down the corresponding X more potent than Pentamidine.
tested on: L. donovani promastigotes; test: Antileishmanial Alamar Blue assay on promastigotes; type: cell-based, Leishmania donovani; conditions: L. donovani; ratio of molar IC50 to Pentamidine

molecule	reported result
O=[N+]([O-])c1ccc(CC2CNCCN(Cc3ccc(CN4CCCN5CCN(CCCNCC4)CC5)cc3)CCCN3CCN(CC3)C2)cc1.[Cu+2].[Cu+2].[O-][Cl+3]([O-])([O-])[O-].[O-][Cl+3]([O-])([O-])[O-].[O-][Cl+3]([O-])([O-])[O-].[O-][Cl+3]([O-])([O-])[O-] (centres unmarked) [SJA234, [Cu2(bis-SB-C-Ar-NO2)(ClO4)4]]	0.21

Record request: X more potent than Pentamidine value, item CC(=O)[O-].F[P-](F)(F)(F)(F)F.O.[Ni+2].c1ccc(CN2CCCNCCN(Cc3ccccc3)CCCNCC2)cc1 [BME06, [Ni(Bn2Cyclam)(OAc)]PF6•H2O]
0.13

---

System: C. krusei ATCC 6258
Assay: Antifungal broth dilution assay against C. krusei (modified CLSI)
Assay type: cell-based, Candida krusei
Conditions: C. krusei; ratio of molar IC50 to amphotericin B
Protocol: General Experimental Procedures. […] Samples (dissolved in DMSO) were serially-diluted in 20% DMSO/saline and transferred (10 μL) in duplicate to 96 well flat bottom microplates. […] All organisms were read at either 530 nm using the Biotek Powerwave XS plate reader (Bio-Tek Instruments, Vermont) prior to and after incubation: Candida spp. at 35° C. for 46-50 h, Staphylococcus spp. at 35° C. for 16-20 h, and C. neoformans at 35° C. for 70-74 h. […]
Criterion: X more potent than Amphotericin B strictly less than 0.2. Met: MET. Not met: NOT MET.

Past entries and their recorded results:
compound	discrete label
CN1CCN2CCN(CC1)CCN(Cc1nc3ccccc3n1Cc1ccc([N+](=O)[O-])cc1)CC2 [SJA230, CB-BINO2-cyclen]	MET
c1c(CN2CCCN3CCN(CCCNCC2)CC3)cc(CN2CCCN3CCN(CCCNCC2)CC3)cc1CN1CCCN2CCN(CCCNCC1)CC2 [CDG19, tris-SB-cyclams]	NOT MET
CC(=O)[O-].CC(=O)[O-].CN1CCCN2CCN(CCCN(Cc3ccc(CN4CCCN5CCN(C)CCCN(CC5)CC4)cc3)CC2)CC1.F[P-](F)(F)(F)(F)F.F[P-](F)(F)(F)(F)F.[Cu+2].[Cu+2] [TJH384A, [Cu2(p-CB-cyclams)(OAc)2](PF6)2]	NOT MET
c1ccc(CN2CCN3CCCN(CC2)CCN(Cc2ccccc2)CC3)cc1 [AW009, Bn2PBCyclen]	MET
CN1CCN2CCN(CC1)CCN(Cc1cc(CN3CCN4CCN(C)CCN(CC4)CC3)cc(CN3CCN4CCN(C)CCN(CC4)CC3)c1)CC2 [BNS017, tris-CB-cyclens]	MET

Is X more potent than Amphotericin B of CC(=O)[O-].F[P-](F)(F)(F)(F)F.F[P-](F)(F)(F)(F)F.F[P-](F)(F)(F)(F)F.[Mn+2].[NH4+].[NH4+].c1ccc(CN2CCN3CCCN(CC2)CCN(Cc2ccccc2)CC3)cc1 [AW036, [Mn(Bn2PBCyclen)(C2H3O2)]PF6•2NH4PF6] strictly below 0.2?
NOT MET

Same question for CC(=O)[O-].CC(=O)[O-].F[P-](F)(F)(F)(F)F.F[P-](F)(F)(F)(F)F.O.O.[Cu+2].[Cu+2].c1cc(CN2CCNCCN3CCN(CC3)CC2)cc(CN2CCNCCN3CCN(CC3)CC2)c1 [OB34, [Cu2(m-SB-Cyclens)(OAc)2][PF6]2•2H2O] please.
NOT MET

Likewise for Clc1cc(CN2CCNCCN3CCN(CC3)CC2)cc(Cl)n1 [OB99, (dcp)1-SB-cyclen] ?
MET

Next compound: CC(=O)[O-].F[P-](F)(F)(F)(F)F.[Ni+2].c1ccc(CN2CCCN3CCN(CCCN(Cc4ccccc4)CC3)CC2)cc1 [TC09, [Ni(Bn2Bcyclam)(OAc)]PF6]
NOT MET

How about CC(=O)[O-].F[P-](F)(F)(F)(F)F.[Ni+2].c1ccc(CN2CCN3CCCN(CC2)CCN(Cc2ccccc2)CC3)cc1 [AW039, [Ni(Bn2PBCyclen)(C2H3O2)]PF6] ?
MET

Try this compound next: O=[N+]([O-])c1ccc(CC2CNCCN(Cc3ccc(CN4CCCN5CCN(CCCNCC4)CC5)cc3)CCCN3CCN(CC3)C2)cc1 (stereo not drawn) [SJA233, Bis-SB-C-Ar-NO2]
NOT MET
